Values were extracted from patent US9586947B2.

# Tested on: LNCaP cells
# assay-text: Proliferation inhibition of LNCaP cells (CCK-8)
# Format: cell-based
# particulars: Homo sapiens, 144 h, cultured 3 + 3 days, CCK-8, OD at 450 nm
The entries below are paired with their reported IC50.
metric: IC50

>>> test_result("CC1(C)C(=O)N(c2ccc(C#N)c(C(F)(F)F)c2)C(=S)N1c1ccc(OCC2CCOC2)nc1 (stereo not drawn)")
"111 nM"
>>> test_result("CC1(C)C(=O)N(c2ccc(C#N)c(C(F)(F)F)c2)C(=S)N1c1ccc(OCCO)c(F)c1")
"146 nM"
>>> test_result("CC1(C)C(=O)N(c2ccc(C#N)c(C(F)(F)F)c2)C(=S)N1c1ccc(OCCO)nc1")
"131 nM"
>>> test_result("CC(=O)N1CCC(Oc2ccc(N3C(=S)N(c4ccc(C#N)c(C(F)(F)F)c4)C(=O)C3(C)C)cc2F)C1 (stereo not drawn)")
"115 nM"
>>> test_result("CNC(=O)C1(COc2ccc(N3C(=S)N(c4ccc(C#N)c(C(F)(F)F)c4)C(=O)C3(C)C)cc2F)CC1")
"159 nM"
>>> test_result("CC1(C)C(=O)N(c2ccc(C#N)c(C(F)(F)F)c2)C(=S)N1c1ccc(OC(F)F)c(F)c1")
"46 nM"
>>> test_result("CC1(C)C(=O)N(c2ccc(C#N)c(C(F)(F)F)c2)C(=S)N1c1ccc(OCC2(O)CC2)c(F)c1")
"87 nM"
>>> test_result("CC1(C)C(=O)N(c2ccc(C#N)c(C(F)(F)F)c2)C(=S)N1c1ccc(OC2CCNCC2)c(F)c1")
"194 nM"
>>> test_result("CC1(C)C(=O)N(c2ccc(C#N)c(C(F)(F)F)c2)C(=S)N1c1ccc(O[C@H]2CCOC2)nc1")
"92 nM"
>>> test_result("CC1(C)C(=O)N(c2ccc(C#N)c(C(F)(F)F)c2)C(=S)N1c1ccc(O[C@@H]2CCOC2)c(F)c1")
"195 nM"
>>> test_result("CC1(C)C(=O)N(c2ccc(C#N)c(C(F)(F)F)c2)C(=S)N1c1ccc(OC2COC2)c(F)c1")
"283 nM"
>>> test_result("CC1(C)C(=O)N(c2ccc(C#N)c(Cl)c2)C(=S)N1c1ccc(OCC2(N)CC2)c(F)c1")
"277 nM"
>>> test_result("CC1(C)C(=O)N(c2ccc(C#N)c(C(F)(F)F)c2)C(=S)N1c1ccc(OC[C@@H](O)CO)cc1")
"33 nM"
>>> test_result("CC1(C)C(=O)N(c2ccc(C#N)c(C(F)(F)F)c2)C(=S)N1c1ccc(OCC2(N)CC2)cc1")
"63 nM"
>>> test_result("CC1(C)C(=O)N(c2ccc(C#N)c(C(F)(F)F)c2)C(=S)N1c1ccc(OCCCS(C)(=O)=O)c(F)c1")
"134 nM"
